# target-of-assay: MeCP2-TBL1 interaction (MeCP2-SmBiT / TBL1-LgBiT) (Mus musculus, UniProt Q9QXE7)
# Construct: expressed in transfected cells; crude lysate used as a cell-free assay
# Sequence (Q9QXE7 166-527): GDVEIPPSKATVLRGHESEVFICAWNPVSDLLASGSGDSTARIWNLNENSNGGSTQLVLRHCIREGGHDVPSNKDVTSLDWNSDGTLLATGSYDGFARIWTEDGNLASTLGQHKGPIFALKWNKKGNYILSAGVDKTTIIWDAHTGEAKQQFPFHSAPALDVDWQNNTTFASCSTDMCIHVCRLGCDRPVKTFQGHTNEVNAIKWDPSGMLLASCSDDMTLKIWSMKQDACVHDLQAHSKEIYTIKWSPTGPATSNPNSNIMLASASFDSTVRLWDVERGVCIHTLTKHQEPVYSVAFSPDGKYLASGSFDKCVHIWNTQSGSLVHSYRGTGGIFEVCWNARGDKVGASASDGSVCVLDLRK
# protocol-text: MeCP2-TBL1 NanoLuc luciferase complementation assay (cell-free, extracts of transfected HEK293 cells);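 also: each compound tested at 20 µM final concentration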
# Assay type: binding, human
# assay-context: primary screen of the Asinex library, sheet "Sargen output Asinex library", one well per compound
observed-property: Inhibition percent (%)
Your answer is read as %, so omit the unit and give the number.

Use these answered entries as a reference point.
compound: CC(=O)N1CCN(CC(=O)NCCc2nc3ccccc3[nH]2)CC1c1ccc(C(F)(F)F)cc1 (stereo not shown) [BDH_33616082]
Inhibition percent, %: -1.86

compound: Cc1cc(Oc2ccc(C(N)=O)cc2)nc(C2CCCCN2C(=O)CCCN2CCCCCC2)n1 (stereo not shown) [BDE_33629625]
Inhibition percent, %: -1.16

compound: Cc1c(C(=O)N2CCC(O)(CN3CCN(c4ccccc4)CC3)C2)cccc1N1CCOCC1 (stereo not shown) [BDH_32364008]
Inhibition percent, %: -0.54

compound: Cc1cnc(C(=O)N2CCC(Cc3nc(C)ncc3C(=O)NCc3ccccc3)CC2)cn1 [BDD_23852576]
Inhibition percent, %: 0.67

compound: O=C1CCCC[C@]2(CN(Cc3ccccc3OCc3ccccn3)C[C@H]2c2ccc(F)cc2)N1 [BDH_32358404]
Inhibition percent, %: 1.07

// query Inhibition percent value for entry COc1cccc(Cc2cnc(C3CCCCN3C(=O)Cc3ccccc3OC)o2)c1 (stereo not shown) [BDE_33514656]
2.98

Given the entry O=C(CCCNc1ncccn1)N1CCCC1c1cncc(Cc2cccc(Cl)c2)n1 (stereo not shown) [BDE_27217604] , report its measured Inhibition percent.
-3.79

Look up Inhibition percent for this compound: CC(C)(C)OC(=O)NCCC(=O)N(Cc1ccccc1)C[C@@H]1C[C@@H](n2ccc(=O)[nH]c2=O)[C@@H](O)[C@@H]1O [BDH_33952010]
-1.46

Dear colleague, I am looking for the recorded Inhibition percent of the following compound: CC(=O)N[C@@]12CCN(CCOc3ccc(F)cc3)C[C@@H]1[C@@H](c1ccccc1)N(C(C)=O)C2 [BDG_30283198]
-0.86

Which Inhibition percent value belongs to O=C(NCCC1CCCCN1C(=O)c1ccnc(Oc2cccc(F)c2)c1)c1ccccc1 (stereo not shown) [BDH_32356851] ?
-4.31

Quick check: Inhibition percent of CC(C)=CCC[C@]1(C)Oc2cc(OCC(=O)O)ccc2[C@H]2OCC3(CCN(C(=O)OC(C)(C)C)CC3)C[C@@H]21 [BDH_33958802] ?
4.22

Data request, read-out Inhibition percent, for CC(=O)N[C@@]12CN(CC(=O)Nc3cc(C)ccc3F)CC[C@@H]1[C@@H](c1ccccc1)N(C(C)=O)C2 [BDH_33619769]
-1.76

I would be grateful if you could share the reported Inhibition percent for Cc1cc(Oc2ccccc2)nc(C2CCN(C(=O)c3ccnc(N4CCN(C)CC4)c3)CC2)n1 [BDH_32358107] .
-1.62

Entry CC(C)N1CC[C@H]2O[C@H]3c4ccccc4OC(C)(C)[C@@H]3C[C@H]21 [BDG_33900670] : reported Inhibition percent = ?
-3.00

I am curious: what Inhibition percent value has been reported for O=C(c1cccc(Oc2ncccn2)c1)N1CC[C@H]2[C@H]1CCCCC(=O)N2Cc1ccccc1 [BDH_32363931] ?
-2.83

Name the reported Inhibition percent value associated with the compound Cc1cccc(Oc2cncc(C3CCCN(C(=O)c4ccc(-n5cccn5)nc4)C3)n2)c1 (stereo not shown) [BDH_32330488]
5.13
